# credit: patent US20120101083A1

measured target: S1P1 receptor (S1P1 expressing RH7777 membranes) (Homo sapiens, UniProt P21453)
Construct: expressed in transfected cells; host or cells: RH7777 cells (membranes)
Sequence (P21453 whole entry): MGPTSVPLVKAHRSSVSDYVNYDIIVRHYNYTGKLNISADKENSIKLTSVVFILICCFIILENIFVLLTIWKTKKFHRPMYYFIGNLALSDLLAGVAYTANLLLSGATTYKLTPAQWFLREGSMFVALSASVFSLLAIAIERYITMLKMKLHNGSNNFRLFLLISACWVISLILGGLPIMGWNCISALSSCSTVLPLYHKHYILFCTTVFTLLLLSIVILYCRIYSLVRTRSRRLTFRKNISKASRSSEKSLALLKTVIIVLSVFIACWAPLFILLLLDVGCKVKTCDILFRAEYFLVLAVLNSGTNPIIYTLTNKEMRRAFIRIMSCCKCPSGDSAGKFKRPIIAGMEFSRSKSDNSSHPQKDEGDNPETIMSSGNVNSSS
test summary: S1P1 GTPγS assay
Format: biochemical
run parameters: tested in one of the above S1P1 assays (two GTPγS formats)
pEC50: −log10 of the molar value. Counter-ions that a name gives are not always drawn.
property: pEC50

Look over these answered cases.
> print(dat)
                                   compound                           measured.target  property  experimental.result
1  CC(C)Nc1ncc(-c2nc(-c3ccc4c(c3)CCN(C[C@H](O)CO)CC4)no2)cc1C#N  S1P1 receptor (S1P1 expressing RH7777 membranes) (Homo sapiens, UniProt P21453)     pEC50               ≥ 6.00
2  CC(C)Oc1ccc(-c2nc(-c3ccc4c(c3)CCN(CCCO)CC4)no2)cc1C#N  S1P1 receptor (S1P1 expressing RH7777 membranes) (Homo sapiens, UniProt P21453)     pEC50               ≥ 7.00
3  Cc1c(-c2noc(-c3ccc(OC(C)C)c(C#N)c3)n2)ccc2c1CCN(C(=O)[C@H](N)[C@@H](C)O)C2  S1P1 receptor (S1P1 expressing RH7777 membranes) (Homo sapiens, UniProt P21453)     pEC50               ≥ 7.00

Now look at this entry.
Sample Cc1c(-c2noc(-c3ccc(OC(C)C)c(C#N)c3)n2)ccc2c1CCN(C[C@@H](O)CO)CC2 [Example 154, hydrochloride] — what was its pEC50? ≥ 7.00
